# MIC Coagulase Negative Staphylococcus (GC 4549) annotations
Tested on: Staphylococcus sp.
Assay: In vitro antibacterial evaluation: minimum inhibitory concentration (MIC), broth dilution method
Assay type: cell-based
Conditions: strain GC 4549; broth dilution, 18 hours at 35° C.
measurement.label: MIC Coagulase Negative Staphylococcus (GC 4549) (µg/mL)

{"columns": ["molecule", "target", "relation.operator", "reported"],
 "data": [
  ["CCCc1ccc(C2OCC3OC(OC4C(CO)OC(Oc5ccc(CC6NC(=O)C(C(C)c7ccccc7)NC(=O)CNC(=O)C(CO)NC(=O)C(C(O)C7CNC(=N)N7C7OC(CO)C(O)C(O)C7O)NC(=O)C(C(O)C7CNC(=N)N7)NC6=O)cc5)C(O)C4O)C(O)C(O)C3O2)cc1 (stereo not drawn) [Example 140]", "Staphylococcus sp.", "<", 0.5],
  ["CCCC(CCC)C(=O)OCC1OC(Oc2ccc(CC3NC(=O)C(C(C)c4ccccc4)NC(=O)CNC(=O)C(CO)NC(=O)C(C(O)C4CNC(=N)N4C4OC(CO)C(O)C(O)C4O)NC(=O)C(C(O)C4CNC(=N)N4)NC3=O)cc2)C(O)C(O)C1OC1OC(CO)C(O)C(O)C1O (stereo not drawn) [Example 99b]", "Staphylococcus sp.", "=", 2],
  ["Cc1cccc(C2OCC3OC(OC4C(CO)OC(Oc5ccc(CC6NC(=O)C(C(C)c7ccccc7)NC(=O)CNC(=O)C(CO)NC(=O)C(C(O)C7CNC(=N)N7C7OC(CO)C(O)C(O)C7O)NC(=O)C(C(O)C7CNC(=N)N7)NC6=O)cc5)C(O)C4O)C(O)C(O)C3O2)c1 (stereo not drawn) [Example 135]", "Staphylococcus sp.", "=", 0.5],
  ["CC(c1ccccc1)C1NC(=O)CNC(=O)C(CO)NC(=O)C(C(O)C2CNC(=N)N2C2OC(CO)C(O)C(O)C2O)NC(=O)C(C(O)C2CNC(=N)N2)NC(=O)C(Cc2ccc(OC3OC(CO)C(OC4OC5COC(c6ccsc6)OC5C(O)C4O)C(O)C3O)cc2)NC1=O (stereo not drawn) [Example 133]", "Staphylococcus sp.", "=", 1],
  ["CC(c1ccccc1)C1NC(=O)CNC(=O)C(CO)NC(=O)C(C(O)C2CNC(=N)N2C2OC(CO)C(O)C(O)C2O)NC(=O)C(C(O)C2CNC(=N)N2)NC(=O)C(Cc2ccc(OC3OC(CO)C(OC4OC5COC(c6ccc7c(c6)OCO7)OC5C(O)C4O)C(O)C3O)cc2)NC1=O (stereo not drawn) [Example 143]", "Staphylococcus sp.", "=", 1],
  ["CC(c1ccccc1)C1NC(=O)CNC(=O)C(CO)NC(=O)C(C(O)C2CNC(=N)N2C2OC(CO)C(O)C(O)C2O)NC(=O)C(C(O)C2CNC(=N)N2)NC(=O)C(Cc2ccc(OC3OC(CO)C(OC4OC5COC(C6CCCC6)OC5C(O)C4O)C(O)C3O)cc2)NC1=O (stereo not drawn) [Example 117]", "Staphylococcus sp.", "=", 1],
  ["CC(c1ccccc1)C1NC(=O)CNC(=O)C(CO)NC(=O)C(C(O)C2CNC(=N)N2C2OC(CO)C(O)C(O)C2O)NC(=O)C(C(O)C2CNC(=N)N2)NC(=O)C(Cc2ccc(OC3OC(CO)C(OC4OC5COC(c6cccc(Cl)c6)OC5C(O)C4O)C(O)C3O)cc2)NC1=O (stereo not drawn) [Example 138]", "Staphylococcus sp.", "=", 1]
]}
